# Tested on: MCF-7
# RUN_DESCRIPTION: MTT cell viability assay, MCF-7 breast adenocarcinoma cells
# Assay type: cell-based
# CONDITION_LABEL: Homo sapiens, MCF7, 72 h, read-out: IC50 value, MCF-7
Please go through the items and note down their pIC50.
Answers are plain numbers, as −log10 of the molar value.

COMPOUND	pIC50
COc1cc(C2=NC(=Cc3cc4ccc(OCc5ccccc5)cc4nc3OC)C(=O)O2)cc(OC)c1OC [Compound 12h]	5.71
COc1cc(C2=NC(=Cc3cc4cccc(C)c4nc3OC)C(=O)N2)cc(OC)c1OC [Compound 13d]	6.86
COc1cc(C2=NC(=Cc3cc4ccc(C)cc4nc3OC)C(=O)N2)cc(OC)c1OC [Compound 13c]	6.65
COc1ccc2cc(C=C3N=C(c4cc(OC)c(OC)c(OC)c4)NC3=O)c(OC)nc2c1 [Compound 13f]	7.04
COc1cc(C2=NC(=Cc3cc4cc(C)ccc4nc3OC)C(=O)N2)cc(OC)c1OC [Compound 13b]	7.20

Quick batch: pIC50 for everything below.
1. COc1cc(C2=NC(=Cc3cc4ccc(OC(C)C)cc4nc3OC)C(=O)O2)cc(OC)c1OC [Compound 12g]
2. COc1ccc2cc(C=C3N=C(c4cc(OC)c(OC)c(OC)c4)OC3=O)c(OC)nc2c1 [Compound 12f]
3. COc1ccc(/C=C\c2cc(OC)c(OC)c(OC)c2)cc1O

## Output
[5.82, 7.28, 7.72]
